# subject-of-test: T1, extracellular domain of human BCMA (human, UniProt Q02223 1-54)
# T1 construct: amine-linked to Octet AR2G tips; also called hsBCMA; BCMA (human)
# T1 sequence: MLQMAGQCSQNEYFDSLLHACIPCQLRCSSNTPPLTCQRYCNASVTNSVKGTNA
# test-protocol: Octet BLI; Fab 200 nM
Assignment: determine reported pKd for the given binders.
One number for each entry, as −log10 of the molar value.

AB200-R1H26-R2Vk37 (Fab, V domains shown) VH: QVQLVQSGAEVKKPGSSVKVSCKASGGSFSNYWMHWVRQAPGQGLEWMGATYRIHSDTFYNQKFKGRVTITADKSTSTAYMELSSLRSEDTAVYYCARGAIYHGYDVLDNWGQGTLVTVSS VL: DIQMTQSPSSLSASVGDRVTITCRASQSISSYINWYQQKPGKAPKLLIYATSNLQSGVPSRFSGSGSGTDFTLTISSLQPEDFATYYCQQYRKIPWSFGQGTKLEIKR    8.64

List reported pKd for each of these binders:
1. AB200-R1H26-R2Vk30 (Fab, V domains shown) VH: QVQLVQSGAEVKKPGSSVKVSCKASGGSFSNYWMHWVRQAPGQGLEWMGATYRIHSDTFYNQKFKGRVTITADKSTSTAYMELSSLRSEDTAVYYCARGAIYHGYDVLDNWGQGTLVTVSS VL: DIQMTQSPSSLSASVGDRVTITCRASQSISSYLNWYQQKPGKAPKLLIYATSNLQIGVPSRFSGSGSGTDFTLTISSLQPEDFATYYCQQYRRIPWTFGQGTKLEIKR
2. AB200-R1H26-R2Vk23 (Fab, V domains shown) VH: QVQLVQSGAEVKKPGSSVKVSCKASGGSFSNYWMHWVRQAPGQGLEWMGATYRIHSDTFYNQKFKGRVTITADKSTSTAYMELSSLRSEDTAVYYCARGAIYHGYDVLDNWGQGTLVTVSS VL: DIQMTQSPSSLSASVGDRVTITCRASQSISSYLNWYQQKPGKAPKLLIYATSNLQSGVPSRFSGSGSGTDFTLTISSLQPEDFATYYCQQFRKIPWTFGQGTKLEIKR
3. AB200-R1H26-R2Vk1 (Fab, V domains shown) VH: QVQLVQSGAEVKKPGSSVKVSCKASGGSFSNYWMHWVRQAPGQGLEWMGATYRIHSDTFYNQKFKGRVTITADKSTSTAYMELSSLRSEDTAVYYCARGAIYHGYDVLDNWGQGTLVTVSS VL: DIQMTQSPSSLSASVGDRVTITCRASQSISSYLNWYQQKPGKAPKLLIYAASSLQSGVPSRFSGSGSGTDFTLTISSLQPEDFATYYCQQFRKLPWSFGQGTKLEIKR

### Response
1. 8.76
2. 8.64
3. 8.69

Consider AB200-R1H26-R2Vk43 (Fab, V domains shown) VH: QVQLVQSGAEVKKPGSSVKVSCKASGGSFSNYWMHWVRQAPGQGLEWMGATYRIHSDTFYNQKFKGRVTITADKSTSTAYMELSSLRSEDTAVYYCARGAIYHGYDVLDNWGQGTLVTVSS VL: DIQMTQSPSSLSASVGDRVTITCRASQSISSYINWYQQKPGKAPKLLIYATSNIQSGVPSRFSGSGSGTDFTLTISSLQPEDFATYYCQQFRKIPWTFGQGTKLEIKR . Its measured pKd is 8.49

Hello, the source for this data is patent US20240327535A1, in case you need it.
